- target: Nuclear receptor subfamily 1 group I member 3 (Homo sapiens) (UniProt Q14994)
- Sequence (Q14994 whole entry, looked up): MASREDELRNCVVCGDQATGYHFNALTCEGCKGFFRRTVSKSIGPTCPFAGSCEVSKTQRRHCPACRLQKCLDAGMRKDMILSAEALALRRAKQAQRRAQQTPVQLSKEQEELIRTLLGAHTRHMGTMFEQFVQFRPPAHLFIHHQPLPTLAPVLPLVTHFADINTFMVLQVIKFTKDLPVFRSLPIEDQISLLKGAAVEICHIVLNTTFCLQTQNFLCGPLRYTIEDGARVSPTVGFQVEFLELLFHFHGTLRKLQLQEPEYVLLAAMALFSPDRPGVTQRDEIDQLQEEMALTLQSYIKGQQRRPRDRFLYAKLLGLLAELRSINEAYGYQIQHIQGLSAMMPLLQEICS
- assay_comment: ATG_CAR_TRANS: Attagene TRANS-FACTORIAL HepG2 Assay for human Constitutive Androstane Receptor (CAR) (AID 2282969);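 further: activators raise reporter mRNA above DMSO so AC50 marks induction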
- measurement_setup: HepG2 Attagene TRANS-FACTORIAL CAR reporter
Inconclusive results are not listed. Active and inactive are the calls of the source. How the source made its calls: active means hit-call score of the fitted dose curve at least 0.9, where 1 is the maximum; inconclusive means response in the unintended direction; inactive means score below 0.9.
Could you please pick one outcome from this set? active, inactive

IN: In this assay, the call recorded for `O=C(c1ccccc1)c1ccc(O)cc1O` was what?
OUT: inactive

IN: // param item: `Cc1ccc(O)c(-n2nc3ccccc3n2)c1` ; yields the recorded call
OUT: inactive

IN: Hi team, can someone confirm the assay call for `O=S(=O)(OCC(F)(F)F)C(F)(F)C(F)(F)C(F)(F)C(F)(F)F` ?
OUT: inactive

IN: # outcome recorded in this test, key = `CCc1ccc(C)nc1`
OUT: inactive

IN: Could you please tell me the result logged for `N#Cc1ccccc1O` in this assay?
OUT: inactive

IN: Assay outcome for `CC(C)(C)c1cc(CCC(=O)OCC(COC(=O)CCc2cc(C(C)(C)C)c(O)c(C(C)(C)C)c2)(COC(=O)CCc2cc(C(C)(C)C)c(O)c(C(C)(C)C)c2)COC(=O)CCc2cc(C(C)(C)C)c(O)c(C(C)(C)C)c2)cc(C(C)(C)C)c1O` : what was it?
OUT: inactive

IN: Tell me the assay call for `CC(C)Nc1ccc(NC(C)C)c2c1C(=O)c1ccccc1C2=O` please.
OUT: inactive

IN: Could you check what this test reported for `O=C1c2c(O)ccc(Nc3ccc(CCO)cc3)c2C(=O)c2c([N+](=O)[O-])ccc(O)c21` ?
OUT: inactive

IN: Given `CC(C)(C)C(=O)C1C(=O)c2ccccc2C1=O` , state the outcome it received in this test.
OUT: inactive

IN: Recorded test outcome, item `CCC/C=C/CO`
OUT: inactive

IN: Field: outcome | Entry: `O=C=NCc1cccc(CN=C=O)c1`
OUT: inactive

IN: Record request — test call for CC(O)C#CC(C)O (configuration not stated)
OUT: active
